Cited source: paper PMC10557143

Target: T1, U2AF1 (human, UniProt Q01081 1-240)
T1 sequence: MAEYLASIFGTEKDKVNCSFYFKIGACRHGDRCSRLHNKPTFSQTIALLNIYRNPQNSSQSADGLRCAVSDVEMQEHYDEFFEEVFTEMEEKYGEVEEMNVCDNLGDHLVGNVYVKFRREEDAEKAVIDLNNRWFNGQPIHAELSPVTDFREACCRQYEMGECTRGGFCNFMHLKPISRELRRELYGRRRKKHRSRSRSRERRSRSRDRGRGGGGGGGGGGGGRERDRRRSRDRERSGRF
Experiment: fluorescence anisotropy; 100 mM K+; Anisotropy: 10 nM probe, 10 mM Tris-HCl pH 7.5, 1 mM EDTA, 100 mM KCl, 0.1 mM DTT, 10 ug/mL BSA, 30 min on ice; EMSA same but Tris pH 8.0, 6% native PAGE in 1x
Conditions: protein: recombinant; tags: His6 (pET30a); label: 5' TAMRA; hybrid-type intramolecular G4
pKd: −log10 of the molar value.
recorded.endpoint: pKd

# binder, readout.value
measured = [
    ("AAAGGGTTAGGGTTAGGGTTAGGGAA (structured_DNA) [hTel_G4]", 7.30),
]
